target: rBmAChE II (recombinant Bombyx mori type II acetylcholinesterase) (Bombyx mori); construct: predicted N-terminal signal peptide removed, codon-optimized, pPIC9K in Pichia pastoris GS115, secreted; crude culture supernatant; 604 residues; assay: Ellman assay inhibition; conditions: crude enzyme supernatant; substrate acetylthiocholine iodide (ATChI), DTNB, 50 mM phosphate, 37 °C; covalent
Sequence (B0FGT2 entry or part of it): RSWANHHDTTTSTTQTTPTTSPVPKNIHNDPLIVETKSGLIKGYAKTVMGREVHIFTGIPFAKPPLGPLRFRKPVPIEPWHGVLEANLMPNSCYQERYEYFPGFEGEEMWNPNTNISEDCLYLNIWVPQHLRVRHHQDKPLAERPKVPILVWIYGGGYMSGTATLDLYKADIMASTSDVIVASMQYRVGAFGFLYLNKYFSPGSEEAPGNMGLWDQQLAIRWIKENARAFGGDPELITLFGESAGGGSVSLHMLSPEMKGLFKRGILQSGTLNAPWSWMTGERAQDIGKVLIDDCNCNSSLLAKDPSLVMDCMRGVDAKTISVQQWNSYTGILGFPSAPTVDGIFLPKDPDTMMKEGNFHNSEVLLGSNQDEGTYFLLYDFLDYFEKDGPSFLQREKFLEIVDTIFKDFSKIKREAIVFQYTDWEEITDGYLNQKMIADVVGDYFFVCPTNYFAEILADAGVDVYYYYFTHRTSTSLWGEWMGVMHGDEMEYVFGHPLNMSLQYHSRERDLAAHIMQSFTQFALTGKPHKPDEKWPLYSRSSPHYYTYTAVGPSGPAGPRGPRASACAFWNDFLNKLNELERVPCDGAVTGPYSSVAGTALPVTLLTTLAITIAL
reportedEndpoint: IC50 (nM)
Number in nM, nothing else.

compound: CNC(=O)Oc1cccc2ccccc12 [carbaryl]
studySystem: rBmAChE II (recombinant Bombyx mori type II acetylcholinesterase) (Bombyx mori)
unitText: nM
observed: 33

compound: CCOC(=O)CC(SP(=S)(OC)OC)C(=O)OCC (stereo not shown) [malathion]
studySystem: rBmAChE II (recombinant Bombyx mori type II acetylcholinesterase) (Bombyx mori)
unitText: nM
observed: 2820

compound: CNC(=O)ON=C(C)SC [methomyl]
studySystem: rBmAChE II (recombinant Bombyx mori type II acetylcholinesterase) (Bombyx mori)
unitText: nM
observed: 750

Name the value of IC50 reported for CNC(=O)Oc1cccc2c1OC(C)(C)C2O (stereo not shown) [carbofuran-3-hydroxy] when tested on rBmAChE II (recombinant Bombyx mori type II acetylcholinesterase) (Bombyx mori).
76

Cited source: paper PMC6274772
